Hello, the source for this data is PubChem BioAssay (NCI), in case you need it.

System: HOP-62 NSCLC
Assay: NCI tumour cell line growth inhibition, 48 h
QUANTITY: TGI (µM)
Give just the number in µM; leave the unit off.

Previously resolved entries follow.
CN(C)CC(C)(C)C(=O)/C=C/c1ccc(/C=C/C(=O)C(C)(C)CN(C)C)cc1    4.51
CC[N+](CC)=c1sc2c(s1)C(c1ccc(Cl)cc1)Oc1ccc(Cl)cc1-2 (stereo not given)    5.56
COC(=O)CCC(=O)NC1=C(Nc2ccc(OC)cc2)C(=O)c2ccccc2C1=O    33.2
CC(C)(C)C(=O)c1c(C(F)(F)F)n([O-])c2ccccc2[n+]1=O    2.94

--- query ---
Prompt: Requested read-out: TGI. Entry: COc1ccc2c(CN3CCCCC3CO)cc3cc(OC)c(OC)cc3c2c1 (stereo not given)
Response: 20.7

====

System: SK-MEL-5 melanoma
Experiment: NCI tumour cell line growth inhibition, 48 h; in the data active = GI50 below about 0.43 µM; inactive = the rest
// one of label 1 for active, label 0 for inactive, no free text

A selection of reference data follows.
CC(=O)[CH-]C(C)=O.CC(=O)[CH-]C(C)=O.[CH2-]CCC.[CH2-]CCC.[Sn+4]    label 0
COc1ccc(-c2cn[nH]c2-c2cc(OC)c3c(c2)OCO3)cc1    label 1
CN(C)CCCNC(=O)c1cc(NC(=O)c2cc(NC(=O)CCc3c[nH]c4ccccc34)cn2C)cn1C    label 0
CN(C)CCCOc1ccc(-c2ccc3ncc4c(c3c2)n(C2CCOCC2)c(=O)n4C)cn1    label 0

Prompt: What outcome does the record of this test show for CC(C)(C)C(=O)c1c(C(F)(F)F)n([O-])c2ccccc2[n+]1=O ?
Response: label 1

Prompt: Name the outcome recorded for C[N-]c1nnnn1C.[Au+].c1ccc([PH+](c2ccccc2)c2ccccc2)cc1 in the assay.
Response: label 0

Prompt: Given COc1ccc2c(c1)C(=O)c1c-2n(CCCN=[N+]=[N-])c(=O)c2cc(OC)c(OC)cc12 , state the outcome it received in this test.
Response: label 0

====

Test system: UO-31 renal
Assay: NCI tumour cell line growth inhibition, 48 h
QUANTITY: TGI

Prompt: Find the recorded TGI belonging to CN(C)CCCOc1ccc(-c2ccc3ncc4c(c3c2)n(C2CCOCC2)c(=O)n4C)cn1 and report it.
Response: 5.89 µM

====

Test system: LXFL 529 NSCLC
Test: NCI tumour cell line growth inhibition, 48 h
QUANTITY: TGI

Example results:
C#Cc1cccc(N2C(=O)CCC2=O)c1    15.8 µM
CN(C)CC(C)(C)C(=O)/C=C/c1ccc(/C=C/C(=O)C(C)(C)CN(C)C)cc1    2.4 µM
O=c1nc(/C=C/c2ccccc2Cl)cc2n1CCN2CCO    > 100 µM
Cc1c(Cl)c2ccccc2n1S(=O)(=O)c1ccccc1    > 100 µM
O=C1c2ccc(O)cc2C(=O)c2ccc(O)cc21    > 100 µM

Prompt: TGI for Cc1cc2c(ccc3c(C)cc(=O)oc32)o1 ?
Response: > 100 µM

Prompt: Tell me the measured TGI of COc1ccc2c(c1)N1CCc3cc(OC)c(OC)cc3C1C2 (stereo not drawn) , please.
Response: > 100 µM

====

Test system: A549 NSCLC
Assay: NCI tumour cell line growth inhibition, 48 h; in the data active = GI50 below about 0.43 µM; inactive = the rest
Classes to choose from: 1.0 = active, 0.0 = inactive

OCc1ccc(-c2ccc(-c3ccc(CO)o3)[se]2)o1    0.0
CCCNNC(=O)/C=C/c1ccc(CNCCc2c(C)[nH]c3ccccc23)cc1    1.0
Cc1nc(SCC(=O)Nc2nc(-c3ccc(Cl)cc3)cs2)n(Nc2ccccc2)c1C    0.0
[Cl-].[O-]/N=C(\c1ccccc1)c1ccccn1.[O-]/N=C(\c1ccccc1)c1ccccn1.[O-]/N=C(\c1ccccc1)c1ccccn1.[Sm+3]    0.0

Prompt: Name the outcome recorded for Cn1cc(C2=C(c3cn(CCCCN)c4ccccc34)C(=O)NC2=O)c2ccccc21 in the assay.
Response: 0.0

Prompt: Please indicate how the test categorized Cc1nn(-c2nc3ccccc3[nH]2)c(N)c1-c1ccc(Cl)cc1 .
Response: 0.0

Prompt: Record request — test call for CN(C)CCCNC(=O)c1cc(NC(=O)c2cc(NC(=O)CCc3c[nH]c4ccccc34)cn2C)cn1C
Response: 0.0

Prompt: Record lookup: outcome of this test for O=S(=O)(Nc1ccccc1Cl)c1ccc(-c2cnc(C3CC3)o2)cc1 ?
Response: 0.0

Prompt: # outcome recorded in this test, key = COc1cc(/C=C2\C(=O)Nc3cc(C)c(O)cc32)cc(OC)c1OC
Response: 0.0

Prompt: Short answer needed: outcome of this test for CCC[CH2][Sn]([CH2]CCC)([CH2]CCC)[O]c1ccc(Cl)cc1Cl ?
Response: 1.0
